// values below are AC50; system is Vasopressin V1a receptor (Homo sapiens); note: assay procedure not described here
Sequence (P37288 whole entry): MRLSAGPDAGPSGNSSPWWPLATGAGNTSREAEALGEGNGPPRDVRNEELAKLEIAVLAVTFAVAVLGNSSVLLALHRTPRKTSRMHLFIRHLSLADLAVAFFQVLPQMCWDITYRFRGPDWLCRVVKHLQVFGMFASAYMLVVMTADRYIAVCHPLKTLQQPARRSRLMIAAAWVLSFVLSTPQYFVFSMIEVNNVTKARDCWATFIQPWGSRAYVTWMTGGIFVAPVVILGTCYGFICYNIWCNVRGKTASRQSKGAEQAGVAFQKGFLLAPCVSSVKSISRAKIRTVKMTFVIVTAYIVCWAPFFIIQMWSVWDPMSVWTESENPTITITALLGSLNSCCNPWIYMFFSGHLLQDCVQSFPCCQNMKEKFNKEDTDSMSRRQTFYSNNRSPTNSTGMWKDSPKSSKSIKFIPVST
Measurement Type: AC50

COc1cc(N)cn[n+]1-c1ccccc1 [AMEZINIUM METILSULFATE]	> 30 µM
CCC(=O)[C@@]1(C)[C@H](C)C[C@H]2[C@@H]3CCC4=CC(=O)C=C[C@]4(C)[C@H]3[C@@H](O)C[C@@]21C [RIMEXOLONE]	> 10 µM
CC(C)C[C@H](NC(=O)[C@H](Cc1ccccc1)NC(=O)c1cnccn1)B(O)O	> 30 µM
CCC1(CC)C(=O)NC(=O)N(C)C1=O	> 10 µM
Cc1cnc(Nc2ccc(OCCN3CCCC3)cc2)nc1Nc1cccc(S(=O)(=O)NC(C)(C)C)c1	> 30 µM
C[C@]12CCC(=O)C=C1C=C[C@@H]1[C@@H]2CC[C@@]2(C)[C@H]1CC[C@@]21CCC(=O)O1	> 30 µM
CCOC(=O)C1=C(C)NC(C)=C(C(=O)OC)C1c1cccc(Cl)c1Cl (stereo not drawn)	> 10 µM
CN1CC2c3ccccc3Oc3ccc(Cl)cc3C2C1 (stereo not drawn)	> 30 µM

----------
Tested System: Alpha-2A adrenergic receptor (Homo sapiens); note: assay procedure not described here
Sequence (P08913 whole entry): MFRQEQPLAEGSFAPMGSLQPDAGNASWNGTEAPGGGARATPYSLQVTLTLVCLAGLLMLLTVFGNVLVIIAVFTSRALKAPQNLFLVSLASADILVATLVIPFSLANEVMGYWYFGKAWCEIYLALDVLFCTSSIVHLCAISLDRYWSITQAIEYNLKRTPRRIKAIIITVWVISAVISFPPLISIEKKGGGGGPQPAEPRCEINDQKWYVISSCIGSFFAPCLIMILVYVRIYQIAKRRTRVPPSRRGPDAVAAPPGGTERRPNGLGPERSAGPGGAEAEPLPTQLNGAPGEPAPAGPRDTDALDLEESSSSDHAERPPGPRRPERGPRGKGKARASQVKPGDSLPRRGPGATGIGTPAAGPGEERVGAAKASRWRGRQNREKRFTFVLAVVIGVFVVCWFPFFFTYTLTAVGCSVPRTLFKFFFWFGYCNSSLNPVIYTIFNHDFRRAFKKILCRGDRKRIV
Format: functional, cell-based
In this section we review reported AC50 values for a set of molecules.
Measurement Type: AC50

CCN(CC)CCn1c(=O)c(Cc2ccc(OC)cc2)nc2ccccc21	> 30 µM
CC(C)(CO)c1cc2cc(NC(=O)C3(c4ccc5c(c4)OC(F)(F)O5)CC3)c(F)cc2n1C[C@@H](O)CO	> 30 µM
Cc1ccc(-c2ncc(Cl)cc2-c2ccc(S(C)(=O)=O)cc2)cn1	> 10 µM
CO/N=C(\C(=O)N[C@@H]1C(=O)N2C(C(=O)[O-])=C(C[n+]3ccc(N)n3CCO)CS[C@H]12)c1csc(N)n1	> 30 µM
OCCOCCN1CCN(C(c2ccccc2)c2ccc(Cl)cc2)CC1 (stereo not drawn) [HYDROXYZINE]	> 10 µM
C[C@H](CCC(=O)O)[C@H]1CC[C@H]2[C@@H]3[C@H](O)C[C@@H]4C[C@H](O)CC[C@]4(C)[C@H]3CC[C@]12C	> 30 µM
CS(=O)(=O)Nc1ccc([N+](=O)[O-])cc1Oc1ccccc1 [NIMESULIDE]	> 30 µM
COc1ccc(C(=O)c2ccccc2)c(O)c1	> 30 µM
Nc1ccc(S(=O)(=O)Nc2ncccn2)cc1	> 10 µM
Cc1c(C)c2c(c(C)c1O)CCC(C)(COc1ccc(CC3SC(=O)NC3=O)cc1)O2 (stereo not drawn)	> 30 µM
CC(C(=O)O)c1ccc(C(=O)c2ccccc2)s1 (stereo not drawn)	> 10 µM
Nc1c2c(nc3ccccc13)CCCC2O (stereo not drawn)	> 30 µM
CCC(=O)c1ccc2c(c1)N(CC(C)N(C)C)c1ccccc1S2 (stereo not drawn)	> 10 µM
O=C(O)COC(=O)Cc1ccccc1Nc1c(Cl)cccc1Cl	> 10 µM
COc1cc(N)cn[n+]1-c1ccccc1 [AMEZINIUM METILSULFATE]	> 30 µM
COc1ccc(C(Cl)=C(c2ccc(OC)cc2)c2ccc(OC)cc2)cc1	> 30 µM
CN(Cc1ccc(C(C)(C)C)cc1)Cc1cccc2ccccc12	> 10 µM
OCCN(CCO)c1nc(N2CCCCC2)c2nc(N(CCO)CCO)nc(N3CCCCC3)c2n1	> 10 µM
